tested on: HIV-1; details: read-out: IC50 in the viral infectivity assay; viral infectivity assay
parameterMeasured: IC50

substance="Ac-IKKEIEAIKKEQEAIKKKIEAIEKLLQLTVWGIKQLQARIL-NH2 [IZN17]" parametermeasured=IC50 result="~5.6 nM"
